# System: SN12C renal
# experiment notes: NCI-60 one-dose screen, 48 h (100 = growth as untreated, 0 = no growth, -100 = all killed)
# condition: 10 µM unless noted
This is part of a sample that, as a whole, favours compounds with a hit. Of some 83,000 tested, about 20% had one in any assay.
measurement label: growth (%)

[
  {
    "compound": "CNC(=O)NCC1OC(n2cnc3c(NC(=O)Nc4ccccc4)ncnc32)C(O[Si](C)(C)C(C)(C)C)C1CC(=O)N(C)OC (centres undefined)",
    "unit of measurement": "%",
    "measured result": 16.8
  },
  {
    "compound": "COc1ccc2oc3c(C)c4c(c(C)c3c2c1)C(=O)N(Cc1ccccc1)C4=O",
    "unit of measurement": "%",
    "measured result": 89.8
  },
  {
    "compound": "C[n+]1cc2cc(C(N)=O)[nH]c3c(=N)c(Cl)c(N)c1c23",
    "unit of measurement": "%",
    "measured result": 53.6
  },
  {
    "compound": "CCCCCCN(CCCCCC)c1ccc(/C=C2/SC(=O)N(c3nc(N4CCCC4)nc(N4CCCC4)n3)C2=O)c(C)c1",
    "unit of measurement": "%",
    "measured result": 59.9
  },
  {
    "compound": "Fc1ccc(CNc2c3ccccc3nc3ccccc23)cc1F",
    "unit of measurement": "%",
    "measured result": 29.7
  },
  {
    "compound": "O=S(=O)(O)c1ccc(N/N=C/c2ccccc2Cl)cc1",
    "unit of measurement": "%",
    "measured result": 106
  },
  {
    "compound": "NS(=O)(=O)c1ccc(-n2nc(C(=O)N/N=C\\c3ccc(F)cc3)cc2-c2ccc(Cl)cc2)cc1",
    "unit of measurement": "%",
    "measured result": 90.7
  },
  {
    "compound": "O=C1CC(N2C(=O)/C(=C/C(Cl)=C\\c3ccc([N+](=O)[O-])cc3)SC2=S)C(=O)N1c1ccc(O)cc1 (centres undefined)",
    "unit of measurement": "%",
    "measured result": -8.4
  },
  {
    "compound": "N#Cc1c(N2CCNCC2)nc2sc3cc(Cl)c(Cl)cc3n2c1=N",
    "unit of measurement": "%",
    "measured result": 93.2
  }
]

###

# Test system: SF-295 CNS
# experiment notes: NCI-60 one-dose screen, 48 h (100 = growth as untreated, 0 = no growth, -100 = all killed)
# condition: 10 µM unless noted
About 83,000 compounds went through this panel and 20% of them were active in at least one assay; those are over-represented in the sample as a whole. The source made the active and inactive calls. How the source made its calls: active means growth percent below 10; inactive means the rest.
Reported growth values follow for various compounds

[
  {
    "smiles": "COc1cc(/C=N/Nc2ncc(-c3cc4cc5c(cc4o3)OCO5)s2)cc(OC)c1OC",
    "growth": "67.1% (inactive)"
  },
  {
    "smiles": "Cn1ccc2c(c1=O)C(=O)c1nccc3c1c-2nc1ccccc13",
    "growth": "-66% (active)"
  },
  {
    "smiles": "COc1cc(/C=C/C(=O)N2CCN(C(=O)c3cc(OC)c(OC)c(OC)c3)CC2)ccc1OCCCN1C(=O)c2cccc3cccc(c23)C1=O",
    "growth": "71.9% (inactive)"
  }
]
